- Tested on: MDA-MB-435
- protocol notes: NCI tumour cell line growth inhibition, 48 h; in the data active = GI50 below about 0.43 µM; inactive = the rest
Bench note: report the call from TRUE (active), FALSE (inactive)

Known results for compounds:
State the result this test recorded for Nc1c(C(=O)Nc2cccc(C(F)(F)F)c2)sc2nc3c(cc12)C(O)CCC3 (stereo not given) .
TRUE

Test call for this compound, please: O=C(OCC1OC(n2cc(C(F)(F)F)c(=O)[nH]c2=O)CC1OC(=O)c1ccc([N+](=O)[O-])cc1)c1ccc([N+](=O)[O-])cc1 (stereo not given)
FALSE

Outcome logged for Cc1oc2c(C(=O)N/N=C\c3ccc(O)cc3O)c[nH]c2c1C in this assay:
FALSE

I'd appreciate the recorded outcome for CC(C)Oc1ccc(-c2nn([C@@H](C)c3oc4ccc(F)cc4c(=O)c3-c3cccc(F)c3)c3ncnc(N)c23)cc1F from this test.
FALSE

Pending compound:
Check the results log: what was the call for CCc1ccc(C(=O)/C=C/C23c4ccccc4C(c4ccccc42)C2C(=O)NC(=O)C23)cc1 (stereo not given) ?
FALSE

---

- Test system: COLO 205 colon
- protocol notes: NCI tumour cell line growth inhibition, 48 h
recorded endpoint: TGI

Some solved cases for reference:
Form: Entry = CN1CCCC2[C@@H]3CCC4=C(O)C(=O)CC[C@]4(C)C3CC[C@@]21C (stereo not given in full) | System = COLO 205 colon | TGI = ____
> 100 µM

Recorded TGI for O=C(Nc1nnc(-c2ccc(Cl)cc2)o1)C(SC(=S)N1CCCCC1)c1ccccc1 (stereo not given) with COLO 205 colon, please?
> 100 µM

What value of TGI on COLO 205 colon does CC1OC(O[C@H]2CC[C@]3(C)[C@H]4CC=C5[C@@H]6[C@@H](C)[C@H](C)CC[C@]6(C(=O)OC6OC(CO)C(O)C(O)C6O)CC[C@@]5(C(=O)O)[C@]4(C)CC[C@H]3C2(C)C)C(O)C(O)C1O (stereo not given in full) have?
> 100 µM

Provide TGI values for the following items, in order.
1. COc1ccc(-c2ccc(-c3ccc(C(=N)N)c(F)c3)s2)cc1
2. CC(CCOc1ccc2ccc(=O)oc2c1)C1=CC(=O)C(C)(C)O1 (stereo not given)
3. N#CC(C#N)=Cc1c[nH]c(=O)[nH]c1=O
4. O=NN1CCNC1Cc1ccccc1 (stereo not given)
5. COc1ccc(/C=C/C(=O)c2sc(NC(=S)NC(=O)c3ccc(Cl)cc3)nc2C)cc1OC
6. NNC(=O)c1ccccc1Nc1nc(-c2cccs2)nc2ccc(Br)cc12
7. Clc1c2ncccc2cc2n[nH]nc12

1. 0.359 µM
2. 5.97 µM
3. > 100 µM
4. > 100 µM
5. > 100 µM
6. > 100 µM
7. > 100 µM

---

- Tested on: CAKI-1 renal
- protocol notes: NCI tumour cell line growth inhibition, 48 h
Where a SMILES comes first, the peptide text is derived from it.
recorded endpoint: TGI

Record excerpt, results attached:
// query TGI value for entry CC(=O)Nc1ccc(-c2nnc(SCC(=O)Nc3ccc(Cl)cc3Cl)o2)cc1
> 100 µM

I have this compound here, CC(C)(C)OC(=O)NC(CSCc1ccc(C(=O)c2ccccc2)cc1)C(=O)O (stereo not given) , and I need its recorded TGI.
> 100 µM

Please report the recorded TGI for CC(=O)OC1C[C@@H](C)C2(CC(c3ccoc3)OC2=O)C2CCC(O)C3(CO3)C12CO (stereo not given in full) .
> 100 µM

// each listed compound needs a value for TGI
1. O=C1OC2C=CCC1C2 (stereo not given)
2. CN1CCCC2[C@@H]3CCC4=C(O)C(=O)CC[C@]4(C)C3CC[C@@]21C (stereo not given in full)
3. Cc1nc2c(=O)[nH]ncc2[nH]1
4. CCC(C)C(NC(=O)C(NC(=O)C(CC(N)=O)NC(=O)CN)C(C)O)C(=O)NC(C(=O)NC(C)C(=O)NC(C(=O)NC(CCC(=O)O)C(=O)NC(CC(C)C)C(=O)NC(CC(=O)O)C(=O)NC(C(=O)NC(Cc1ccc(O)cc1)C(=O)N1CCCC1C(=O)O)C(C)O)C(C)C)C(C)C (stereo not given) (H-GNTIVAVELDTYP-OH; configuration not given here)
5. c1ccc2c(c1)Oc1cccc3cccc-2c13
6. C=C(C(=O)OC)N1C(=O)CC(C)C1=O (stereo not given)
7. Nc1ccccc1Nc1ccccc1C(=O)[O-].Nc1ccccc1Nc1ccccc1C(=O)[O-].[Ni+2]
8. COC1O[C@@H]2COC(C)(C)O[C@@H]2C(=O)N1Nc1ccc([N+](=O)[O-])cc1 (stereo not given in full)

["> 100 µM", "> 100 µM", "> 100 µM", "> 50 µM", "> 100 µM", "4.38 µM", "> 100 µM", "> 100 µM"]

---

- System: HCT-116 colon
- protocol notes: NCI tumour cell line growth inhibition, 48 h
recorded endpoint: TGI

TGI for O=S(O)CCCCCSSSCCCCCS(=O)O ?
68.1 µM

Suppose we examine the compound COC(=O)c1cnc(Cl)c([N+](=O)[O-])c1 ; what TGI value has been reported?
8.77 µM

Fill in: TGI of COc1ccc2c(c1)[n+](=O)c(C(=O)CC(=O)C(=O)Nc1cccc(Cl)c1C)c(C)n2[O-] is ___
> 100 µM

Each compound below has a recorded value; state its TGI.
1. NC(=O)c1cn(C2OC(CO)C(O)C2O)c(=O)[nH]c1=O (centres undefined)
2. COc1ccc(C2SC(N)=Nc3c2c(C)nn3C(=O)Cc2ccccc2)cc1 (centres undefined)

> 100 µM
> 100 µM

Below are some compounds; for each one, tell me its TGI.
1. C=C=C(Sc1ccccc1)C(C)(C)O
2. Cc1[nH]c(=O)nc2nc3ccc(Cl)cc3c(N(CCO)CCO)c12
3. Fc1cccc(C2SCC3=Nc4ccccc4CN32)c1 (centres undefined)

1. > 100 µM
2. > 100 µM
3. 88.6 µM

---

- Tested on: MALME-3M melanoma
- protocol notes: NCI tumour cell line growth inhibition, 48 h
Answer each item with its documented TGI.

May I ask what TGI has been recorded for CC(=O)OCC(OC(C)=O)C(OC(C)=O)C(OC(C)=O)C(=O)CNn1c(-c2ccc(C)cc2)nc2ccccc2c1=O (stereo not given) ?
> 100 µM

Can you look up the measured TGI of COc1ccc2c(c1)[n+](=O)c(C(=O)CC(=O)C(=O)Nc1cccc(Cl)c1C)c(C)n2[O-] for me?
> 100 µM

Each of the following entries comes with a recorded value; kindly state TGI for each.
1. CCc1n[nH]c(=O)n1O
2. CCCCCCCCCCCC(=O)NCc1ccc(OC(=O)CCCCCCCCCCC)c(OC)c1
3. CN(CCCNC(=O)c1nn(-c2ccccc2)c2c1ccc1ccccc12)CCCNC(=O)c1nn(-c2ccccc2)c2c1ccc1ccccc12

1: > 100 µM; 2: > 100 µM; 3: 3.47 µM

---

- System: COLO 205 colon
- protocol notes: NCI tumour cell line growth inhibition, 48 h
recorded endpoint: TGI

Please review the following examples before continuing.
Please look up its TGI: CC1OC(Oc2c(-c3cc(O)c(O)c(O)c3)oc3cc(O)cc(O)c3c2=O)C(O)C(O)C1O (stereo not given)
> 100 µM

What does the record list as TGI for OC(CC(CC(O)(C(F)(F)F)C(F)(F)F)=NN=C(CC(O)(C(F)(F)F)C(F)(F)F)CC(O)(C(F)(F)F)C(F)(F)F)(C(F)(F)F)C(F)(F)F ?
> 10 µM

What does the data say about its TGI? Entry: O=C1C(c2ccc([N+](=O)[O-])cc2)=C(Cl)C(=O)c2c(O)cccc21
32.4 µM

Batch lookup, TGI per entry.
1. COC1O[C@@H]2COC(C)(C)O[C@@H]2C(=O)N1Nc1ccc([N+](=O)[O-])cc1 (stereo not given in full)
2. COc1ccc(C(NS(=O)(=O)c2ccc(C)cc2)c2c(C(CBr)OC)c3ccccc3n2S(=O)(=O)c2ccccc2)cc1OC (stereo not given)
3. CCCCCCCCCCCCCCCCCCOP(=O)([O-])OCC[N+](C)(C)C

["> 100 µM", "> 100 µM", "0.5 µM"]

Provide each entry's TGI from the list below.
1. O=C(NC(=S)Nc1ccc2c(c1)Sc1ccccc1O2)c1ccccc1
2. CC(=O)Nc1ccc(-c2nnc(SCC(=O)Nc3ccc(Cl)cc3Cl)o2)cc1

> 100 µM
68.3 µM

The following compounds each have a reported value; give each one's TGI.
1. O=C1C=CC2(O)OC/C(=C\c3ccccc3)C(O)=C2C1=O (stereo not given)
2. O=C1OCC2=C1C(c1ccc3c(c1)OCO3)c1cc3c(cc1O2)OCO3 (stereo not given)

1: 6.33 µM; 2: 15.2 µM

# per-item lookup of TGI; items listed below
1. CCC(=O)OC1=C(c2ccccc2)Sc2ccc(Cl)cc2-n2cccc21
2. CCOC(=O)/C(C#N)=C\C=C(\Sc1nc2ccccc2s1)c1ccc(Cl)cc1
3. CC(=O)OCC(OC(C)=O)C(OC(C)=O)C(OC(C)=O)C(=O)CNn1c(-c2ccc(C)cc2)nc2ccccc2c1=O (stereo not given)

1: > 10 µM; 2: 42.8 µM; 3: > 100 µM
